target-desc: dog IgG (chrompure dog IgG) (dog)
Mark each entry Criterion met if its maximal absorbance value sits below 0.7 A450, and Criterion not met for all others.

INSERT INTO assay_data (binder, group_label) VALUES
  ('SVG06L (VHH) VHH: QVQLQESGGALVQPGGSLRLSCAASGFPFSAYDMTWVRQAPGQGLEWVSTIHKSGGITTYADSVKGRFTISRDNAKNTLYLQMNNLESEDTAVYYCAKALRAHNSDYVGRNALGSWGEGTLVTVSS', 'Criterion met'),
  ('SVT15-3FW4M-GS2-SVG13M4-H6 (bispecific antibody) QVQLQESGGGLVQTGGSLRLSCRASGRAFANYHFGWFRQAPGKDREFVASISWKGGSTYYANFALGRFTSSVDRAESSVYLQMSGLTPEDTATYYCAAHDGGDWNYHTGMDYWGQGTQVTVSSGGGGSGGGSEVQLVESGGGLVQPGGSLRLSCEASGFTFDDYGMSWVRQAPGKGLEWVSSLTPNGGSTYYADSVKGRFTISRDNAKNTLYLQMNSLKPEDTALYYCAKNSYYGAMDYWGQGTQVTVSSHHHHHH', 'Criterion not met'),
  ('SVT02-GS2-SVG13M4-H6 (bispecific antibody) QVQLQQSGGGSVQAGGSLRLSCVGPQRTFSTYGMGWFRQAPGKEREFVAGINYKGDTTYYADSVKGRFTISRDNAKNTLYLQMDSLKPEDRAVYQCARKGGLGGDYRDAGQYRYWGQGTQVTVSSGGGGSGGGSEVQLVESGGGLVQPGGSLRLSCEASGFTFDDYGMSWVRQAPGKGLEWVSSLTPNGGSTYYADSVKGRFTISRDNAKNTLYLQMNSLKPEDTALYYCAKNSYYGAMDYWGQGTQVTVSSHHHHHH', 'Criterion met');

We now examine a further binder.
Take the binder SVT06-SVT16-L123Q-GS2-SVG13M4-H6 (bispecific antibody, also called pRL501) QVQLQESGGGSVQAGGSLRLSCTASELSYDDYTIAWFRRAAGEGRVEDGEGVASITKSYDRAYDNKINYGHSVKGRFTISRDNAKNTVYLQMTDLLPSDTAVYYCALDITPPGGVGASLTEGFLFDYWGQGTQVTVSSQVQLQESGGGSVQAGDSLRLSCAASGRTISNYAMGWFRQAPGKQREFVAAISRSDNTYYTDSVKGRFTISRDNAKNTLYLQMNSLKPEETAVYYCAADPNLMYESKWKYRALEAWGQGTQVTVSSGGGGSGGGSEVQLVESGGGLVQPGGSLRLSCEASGFTFDDYGMSWVRQAPGKGLEWVSSLTPNGGSTYYADSVKGRFTISRDNAKNTLYLQMNSLKPEDTALYYCAKNSYYGAMDYWGQGTQVTVSSHHHHHH and say whether its maximal absorbance value is less than 0.7 A450.
Criterion not met
